The entries below come with measured IC50 values attached.
# Test System: Integrin alpha-V/beta-3 (Homo sapiens, UniProt P05106+P06756)
# Sequence (P05106 27-788 limits assumed): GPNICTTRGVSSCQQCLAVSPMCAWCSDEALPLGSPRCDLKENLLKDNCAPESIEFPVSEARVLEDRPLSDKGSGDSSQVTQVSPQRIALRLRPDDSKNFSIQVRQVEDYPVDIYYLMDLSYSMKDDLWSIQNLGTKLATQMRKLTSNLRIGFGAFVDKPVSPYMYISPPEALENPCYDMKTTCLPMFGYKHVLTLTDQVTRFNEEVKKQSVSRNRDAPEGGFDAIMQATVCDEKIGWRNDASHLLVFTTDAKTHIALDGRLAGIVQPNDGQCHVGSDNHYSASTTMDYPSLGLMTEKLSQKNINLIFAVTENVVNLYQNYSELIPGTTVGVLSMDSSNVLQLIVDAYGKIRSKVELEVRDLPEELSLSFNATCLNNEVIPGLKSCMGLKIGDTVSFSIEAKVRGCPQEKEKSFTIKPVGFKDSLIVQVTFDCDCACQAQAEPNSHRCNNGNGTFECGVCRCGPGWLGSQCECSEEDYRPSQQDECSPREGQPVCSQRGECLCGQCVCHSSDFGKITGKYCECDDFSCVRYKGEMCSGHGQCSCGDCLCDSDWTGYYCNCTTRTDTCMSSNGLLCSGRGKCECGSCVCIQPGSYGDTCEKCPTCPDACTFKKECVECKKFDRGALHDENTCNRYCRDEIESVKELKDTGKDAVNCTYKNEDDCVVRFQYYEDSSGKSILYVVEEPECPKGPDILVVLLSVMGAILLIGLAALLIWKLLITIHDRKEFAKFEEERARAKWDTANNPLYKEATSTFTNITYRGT
# Sequence (P06756 31-889 limits assumed): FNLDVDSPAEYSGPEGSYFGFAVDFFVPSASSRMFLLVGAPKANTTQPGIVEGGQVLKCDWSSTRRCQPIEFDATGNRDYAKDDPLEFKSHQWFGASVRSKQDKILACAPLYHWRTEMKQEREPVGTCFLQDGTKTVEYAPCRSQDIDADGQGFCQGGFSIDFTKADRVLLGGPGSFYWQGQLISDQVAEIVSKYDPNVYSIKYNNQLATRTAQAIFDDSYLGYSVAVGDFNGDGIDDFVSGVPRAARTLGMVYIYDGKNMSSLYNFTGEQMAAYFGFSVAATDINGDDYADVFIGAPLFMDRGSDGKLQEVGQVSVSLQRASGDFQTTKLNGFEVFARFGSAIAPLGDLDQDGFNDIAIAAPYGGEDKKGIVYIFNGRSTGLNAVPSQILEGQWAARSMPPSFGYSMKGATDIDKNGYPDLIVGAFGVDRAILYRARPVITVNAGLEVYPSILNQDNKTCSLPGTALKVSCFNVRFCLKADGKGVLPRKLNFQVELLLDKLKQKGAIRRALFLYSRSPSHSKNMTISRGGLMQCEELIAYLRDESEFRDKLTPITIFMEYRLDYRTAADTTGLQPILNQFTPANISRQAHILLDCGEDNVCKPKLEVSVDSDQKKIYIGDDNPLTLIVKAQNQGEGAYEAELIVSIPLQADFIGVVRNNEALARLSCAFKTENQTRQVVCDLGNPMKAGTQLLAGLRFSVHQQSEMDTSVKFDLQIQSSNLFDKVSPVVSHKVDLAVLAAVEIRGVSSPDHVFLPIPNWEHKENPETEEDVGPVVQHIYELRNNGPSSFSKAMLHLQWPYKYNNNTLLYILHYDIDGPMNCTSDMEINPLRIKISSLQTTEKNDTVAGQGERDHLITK
# Sequence (P06756 891-1048 limits assumed): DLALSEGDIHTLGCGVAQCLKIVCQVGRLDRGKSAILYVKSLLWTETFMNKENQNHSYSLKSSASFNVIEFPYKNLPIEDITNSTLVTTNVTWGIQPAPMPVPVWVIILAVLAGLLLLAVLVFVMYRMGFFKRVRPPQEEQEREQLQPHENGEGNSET
# Assay Overview: Inhibition of biotinylated vitronectin binding to human alphaVbeta3 integrin after 3 hrs by ELISA

See these solved cases before continuing.
sample_smiles=CC(C)(CN)COC(=O)NCCS(=O)(=O)N[C@@H](CNC(=O)c1ccc(OCCNC2=NCCCN2)cc1)C(=O)O test_system="Integrin alpha-V/beta-3 (Homo sapiens, UniProt P05106+P06756)" obs_value="2.07 nM"
sample_smiles=CC(C)(CNC(=O)OCCOCCOCCOCCOCCOCCOCCOCCOC(=O)NCC(C)(C)COC(=O)NCCS(=O)(=O)N[C@@H](CNC(=O)c1ccc(OCCN=C2NCCCN2)cc1)C(=O)O)COC(=O)NCCS(=O)(=O)N[C@@H](CNC(=O)c1ccc(OCCN=C2NCCCN2)cc1)C(=O)O test_system="Integrin alpha-V/beta-3 (Homo sapiens, UniProt P05106+P06756)" obs_value="0.32 nM"

# input GET /values?readout=IC50&item= `NCCS(=O)(=O)N[C@@H](CNC(=O)c1ccc(OCCNC2=NCCCN2)cc1)C(=O)O`
# output 22.3 nM
